Target protein (sequence): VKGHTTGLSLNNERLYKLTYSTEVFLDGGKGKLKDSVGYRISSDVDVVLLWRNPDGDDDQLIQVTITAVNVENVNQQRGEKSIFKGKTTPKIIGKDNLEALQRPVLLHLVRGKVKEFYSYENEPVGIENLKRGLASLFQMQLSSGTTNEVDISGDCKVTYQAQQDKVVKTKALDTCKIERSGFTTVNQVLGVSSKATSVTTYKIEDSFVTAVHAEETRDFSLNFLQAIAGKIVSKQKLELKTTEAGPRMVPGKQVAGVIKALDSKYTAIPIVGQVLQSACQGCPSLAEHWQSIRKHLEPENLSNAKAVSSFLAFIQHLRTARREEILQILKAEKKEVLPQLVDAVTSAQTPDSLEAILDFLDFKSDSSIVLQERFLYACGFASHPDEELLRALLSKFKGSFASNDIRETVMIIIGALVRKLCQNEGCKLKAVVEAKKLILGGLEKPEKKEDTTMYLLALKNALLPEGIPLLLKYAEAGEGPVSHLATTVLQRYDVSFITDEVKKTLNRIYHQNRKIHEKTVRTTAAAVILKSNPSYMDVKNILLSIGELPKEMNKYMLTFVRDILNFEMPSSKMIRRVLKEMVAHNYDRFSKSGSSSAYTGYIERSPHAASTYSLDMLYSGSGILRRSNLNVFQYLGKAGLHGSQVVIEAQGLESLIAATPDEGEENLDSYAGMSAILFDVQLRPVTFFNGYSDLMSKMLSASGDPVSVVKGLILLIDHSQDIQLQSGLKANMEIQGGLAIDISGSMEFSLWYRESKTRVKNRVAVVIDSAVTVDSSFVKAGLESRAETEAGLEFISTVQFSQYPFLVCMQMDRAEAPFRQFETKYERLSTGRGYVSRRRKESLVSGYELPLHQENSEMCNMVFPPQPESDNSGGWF
outcomeMeasure: IC50 (nM)
// note: answer is a bare numeric in nM

Prompt line: Entry under review: CS(=O)(=O)c1ccc(CNC(=O)C(CCCCn2cc(-c3ccccc3)c3cccnc32)C2CCCCC2)cc1 (stereo not shown) . Reported IC50?
Response line: 529

###

Test system: apo B secretion in HepG2 cells
Assay: Inhibition of ApoB secretion in HepG2 cells, sandwich ELISA
Type: cell-based
Details: 24 hours incubation, ELISA specific for human apo B
Provide the recorded pIC50 for the entries that follow.
Field pIC50 (float): negative decimal logarithm of the concentration in molar.

Prompt line: Entry under review: CS(=O)(=O)c1ccc(CNC(=O)C(CCCCn2cc(-c3ccccc3)c3cccnc32)C2CCCCC2)cc1 (stereo not drawn) . Reported pIC50?
Response line: 8.52

Prompt line: Note, next up: O=C(NCc1ccncc1)C(CCCCCn1cc(-c2ccccc2)c2cccnc21)C1CCCC1 (stereo not drawn)
Response line: 7.74

Prompt line: Note, next up: O=C(NCc1ccccc1)C(CCCCn1cc(-c2ccccc2)c2cccnc21)C1CCCCCC1 (stereo not drawn)
Response line: 7.82
